Recorded Ki, one value per entry.
Target: first (BD1: amino acids K57-E168) bromodomain of BRD4 (Homo sapiens)
Construct: His-tagged first (BD1: amino acids K57-E168)
Experiment: TR-FRET bromodomain binding assay, BRD4 BD1
Conditions: TR-FRET assay protocol (A-G, compound concentration range); Ki calculated from IC50, probe Kd and probe concentration; read-out: TR-FRET Binding Ki: BRD4 (BDI_K57-E168)
measured_parameter: Ki (nM)

[[record]]
compound = "CCOc1cc(=O)n(C)cc1-c1cc(NS(=O)(=O)c2ccc(-c3ccccc3)cc2)ccc1Oc1ccc(F)cc1F [Example 309]"
measured_value = 359

[[record]]
compound = "Cn1nc(-c2ccccc2Oc2ccccc2)c(-c2ccc(NCc3ccccc3)nc2)cc1=O [Example 164]"
measured_value = 1510

[[record]]
compound = "Cc1nnc(-c2cccc(-c3cc(=O)n(C)nc3-c3ccccc3Oc3ccccc3)c2)o1 [Example 176]"
measured_value = 3660

[[record]]
compound = "CCS(=O)(=O)c1ccc(Oc2ccc(F)cc2F)c(-c2cn(C)c(=O)cc2Oc2ccc(F)cc2F)c1 [Example 317]"
measured_value = 377

[[record]]
compound = "CCOc1cc(=O)n(C)cc1-c1cc(S(=O)(=O)CC)ccc1OCC1CC1(F)F (stereo not drawn) [Example 368]"
measured_value = 19.6

[[record]]
compound = "Cn1nc(-c2ccccc2Oc2ccccc2)c(-c2ccc(CN3CCCCC3)cc2)cc1=O [Example 67]"
measured_value = 70.8


###

Molecular target: first (BD1: amino acids K57-E168) bromodomain of BRD4 (Homo sapiens, UniProt O60885)
Construct: His-tagged first (BD1: amino acids K57-E168)
Experiment: TR-FRET bromodomain binding assay, BRD4 BD1
Conditions: TR-FRET assay protocol (A-G, compound concentration range); Ki calculated from IC50, probe Kd and probe concentration; read-out: TR-FRET Binding Ki: BRD4 (BDI_K57-E168)
Below, each of the molecules is paired with its reported Ki value.
measured_parameter: Ki (nM)

[[record]]
sample_smiles = "COc1cc(=O)n(C)nc1-c1ccccc1Oc1ccc(C#N)cc1"
qualifying_sign = "="
measured_value = 5320

[[record]]
sample_smiles = "Cn1nc(-c2ccccc2Oc2ccccc2)c(-c2cc[nH]c(=O)c2)cc1=O"
qualifying_sign = "="
measured_value = 6890

[[record]]
sample_smiles = "Cn1nc(-c2ccccc2Oc2ccccc2)c(C2CCN(S(C)(=O)=O)CC2)cc1=O"
qualifying_sign = "="
measured_value = 4550

[[record]]
sample_smiles = "COc1cc(=O)n(C)nc1-c1cc(NS(C)(=O)=O)ccc1Oc1ccccc1"
qualifying_sign = "="
measured_value = 258

[[record]]
sample_smiles = "COC(=O)COc1cc(=O)n(C)nc1-c1ccccc1Oc1ccccc1"
qualifying_sign = "="
measured_value = 6350

[[record]]
sample_smiles = "Cn1nc(-c2ccccc2Oc2ccccc2)c(C2=CCN(C(=O)OC(C)(C)C)CC2)cc1=O"
qualifying_sign = "="
measured_value = 1120

[[record]]
sample_smiles = "CCS(=O)(=O)Nc1ccc(Oc2ccc(F)cc2F)c(-c2cn(C)c(=O)cc2-c2ccccc2O)c1"
qualifying_sign = "="
measured_value = 164

[[record]]
sample_smiles = "CCN(CC)C(=O)c1ccc(-c2cc(=O)n(C)nc2-c2ccccc2Oc2ccccc2)cc1"
qualifying_sign = "="
measured_value = 604

[[record]]
sample_smiles = "Cc1cc(-c2cc(NS(C)(=O)=O)ccc2Oc2ccc(F)cc2F)c[nH]c1=O"
qualifying_sign = "="
measured_value = 48.8

[[record]]
sample_smiles = "Cn1nc(-c2ccccc2Oc2ccccc2)c(-c2ccc(C(=O)NCc3ccccc3)cc2)cc1=O"
qualifying_sign = "="
measured_value = 531

[[record]]
sample_smiles = "CCS(=O)(=O)c1ccc(OCC2CC2)c(-c2cc(NS(C)(=O)=O)c(=O)n(C)c2)c1"
qualifying_sign = "="
measured_value = 172

[[record]]
sample_smiles = "COc1cc(-c2cc(=O)n(C)nc2-c2ccccc2Oc2ccccc2)ccn1"
qualifying_sign = "="
measured_value = 598

[[record]]
sample_smiles = "Cn1nc(-c2ccccc2Oc2ccccc2)c(-c2cnn(Cc3ccccc3)c2)cc1=O"
qualifying_sign = "="
measured_value = 407

[[record]]
sample_smiles = "CCOc1cc(=O)n(C)cc1-c1cc(NS(=O)(=O)CC)ccc1Oc1ccc(C#N)cc1"
qualifying_sign = "="
measured_value = 7.8

[[record]]
sample_smiles = "COC(=O)CCc1cc(=O)n(C)nc1-c1ccccc1Oc1ccccc1"
qualifying_sign = "="
measured_value = 24300

[[record]]
sample_smiles = "C=CC#Cc1ccccc1Oc1ccc(S(=O)(=O)CC)cc1-c1cn(C)c(=O)cc1O"
qualifying_sign = "="
measured_value = 754

[[record]]
sample_smiles = "Cc1cc(-c2ccc(-c3ccc(=O)n(C)c3)c(OCC3CC3)c2)[nH]n1"
qualifying_sign = "="
measured_value = 353

[[record]]
sample_smiles = "COc1cc(=O)n(C)nc1-c1cc(N(C)S(C)(=O)=O)ccc1Oc1ccccc1"
qualifying_sign = "="
measured_value = 480

[[record]]
sample_smiles = "COc1ccc(-c2cc(=O)n(C)nc2-c2ccccc2Oc2ccccc2)cn1"
qualifying_sign = "="
measured_value = 1050

[[record]]
sample_smiles = "CC(=O)Nc1ccc(-c2cc(=O)n(C)nc2-c2ccccc2Oc2ccccc2)cc1"
qualifying_sign = "="
measured_value = 516

[[record]]
sample_smiles = "CC(=O)NCCc1ccc(-c2cc(=O)n(C)nc2-c2ccccc2Oc2ccccc2)cc1"
qualifying_sign = "="
measured_value = 143

[[record]]
sample_smiles = "C/C=C/c1cc(=O)n(C)cc1-c1cc(NS(=O)(=O)CC)ccc1Oc1ccc(F)cc1F"
qualifying_sign = "="
measured_value = 2.98

[[record]]
sample_smiles = "CCS(=O)(=O)Nc1ccc(Oc2ccc(F)cc2F)c(-c2cn(C)c(=O)cc2OCC(F)(F)F)c1"
qualifying_sign = "="
measured_value = 37.1

[[record]]
sample_smiles = "CC(C)Oc1ncccc1-c1cc(=O)n(C)nc1-c1ccccc1Oc1ccccc1"
qualifying_sign = ">"
measured_value = 13000

[[record]]
sample_smiles = "CCS(=O)(=O)Nc1ccc(Oc2ccc(F)cc2F)c(-c2cn(C)c(=O)cc2-c2ccc(N3CCOCC3)cc2)c1"
qualifying_sign = "="
measured_value = 5.75

[[record]]
sample_smiles = "CCS(=O)(=O)Nc1ccc(Oc2ccc(F)cc2F)c(-c2cc(Cl)c(=O)n(C)c2)c1"
qualifying_sign = "="
measured_value = 17.4

[[record]]
sample_smiles = "CCS(=O)(=O)Nc1ccc(Oc2ccc(F)cc2F)c(-c2cn(C)c(=O)cc2-c2ccc(CO)cc2)c1"
qualifying_sign = "="
measured_value = 7.53

[[record]]
sample_smiles = "Cn1nc(-c2ccccc2Oc2ccccc2)c(-c2cccc(CN3CCOCC3)c2)cc1=O"
qualifying_sign = "="
measured_value = 526

[[record]]
sample_smiles = "CCS(=O)(=O)Nc1ccc(Oc2ccc(F)cc2F)c(-c2cn(C)c(=O)cc2OC2CCNCC2)c1"
qualifying_sign = "="
measured_value = 437

